Test system: PAD
EXPERIMENT: qHTS profiling for inhibitors of Plasmodium falciparum proliferation (AID 504749); further: nearly all actives have a fitted effect of over 60% in size
TEST PARAMETERS: P. falciparum in erythrocytes, SYBR Green DNA, 72 h; series mostly up to 28.7 µM
Records with an inconclusive call do not appear. Activity calls are given as the source filed them. The call rests on the fitted dose curve; in most records, active means well fitted inhibition curve with a large enough effect; inconclusive means small, poorly fitted or top-dose-only effect; inactive means flat fitted curve, though single readings scatter.
Response enum: label 1 for active, label 0 for inactive

Query string: What did this assay record as the result for `O=C(O)C1=C(CSc2nnnn2CS(=O)(=O)O)CS[C@@H]2[C@H](NC(=O)[C@H](O)c3ccccc3)C(=O)N12` ?
Result string: label 0

Query string: What did this assay record as the result for `c1ccc2ccccc2c1` ?
Result string: label 0

Query string: What did this assay record as the result for `O=C(O)Cc1cc(I)c(Oc2ccc(O)c(I)c2)c(I)c1` ?
Result string: label 0

Query string: What did this assay record as the result for `COc1ccc2c(=O)c(C)c(-c3ccccc3)oc2c1CN(C)C` ?
Result string: label 0

Query string: What did this assay record as the result for `O.O.O.O.O.O.O.O=S(=O)([O-])[O-].[Co+2]` ?
Result string: label 0

Query string: What did this assay record as the result for `CCOC(=S)SSC(=S)OCC` ?
Result string: label 0

Query string: What did this assay record as the result for `C/C=C/C=C/C(=O)O` ?
Result string: label 0

Query string: What did this assay record as the result for `O=C(O)COc1ccc(CCNS(=O)(=O)c2ccccc2)s1` ?
Result string: label 0

Query string: What did this assay record as the result for `O=C(NNCNNC(=O)c1ccncc1)c1ccncc1` ?
Result string: label 0

Query string: What did this assay record as the result for `CC(=O)Nc1ccc(OC(C)=O)cc1` ?
Result string: label 0

Query string: What did this assay record as the result for `[O-][N+](=Nc1ccccc1)c1ccccc1` ?
Result string: label 0

Query string: What did this assay record as the result for `OB(O)O` ?
Result string: label 0

Query string: What did this assay record as the result for `CCOC(=O)[C@@H](N)CS` ?
Result string: label 0

Query string: What did this assay record as the result for `CC(=O)N=c1sc(S(N)(=O)=O)nn1C` ?
Result string: label 0

Query string: What did this assay record as the result for `CC(C)(CO)[C@@H](O)C(=O)NCCC(=O)NCCSSCCNC(=O)CCNC(=O)[C@H](O)C(C)(C)CO` ?
Result string: label 0

Query string: What did this assay record as the result for `C=CCCCCCCCCC(=O)OC` ?
Result string: label 0

Query string: What did this assay record as the result for `Cc1ncc(COP(=O)(O)O)c(CN)c1O` ?
Result string: label 0

Query string: What did this assay record as the result for `NCC[C@H](O)C(=O)N[C@@H]1C[C@H](N)[C@@H](O[C@H]2O[C@H](CN)CC[C@H]2N)[C@H](O)[C@H]1O[C@H]1O[C@H](CO)[C@@H](O)[C@H](N)[C@H]1O` ?
Result string: label 0

Query string: What did this assay record as the result for `CC(C)(C)CC(C)(C)c1ccc(OCCO)cc1` ?
Result string: label 0

Query string: What did this assay record as the result for CCN(CC)CCCC(C)Nc1cc(/C=C/c2ccccc2Cl)nc2cc(Cl)ccc12 (stereo unspecified) ?
Result string: label 1

Query string: What did this assay record as the result for `CCOC(=O)Cc1ccc(-c2ccccc2)cc1` ?
Result string: label 0

Query string: What did this assay record as the result for `O=C(O)CCC(=O)c1ccc(-c2ccccc2)cc1` ?
Result string: label 0

Query string: What did this assay record as the result for `Cc1c(C)c2c(c(C)c1OC(=O)CCC(=O)O)CC[C@@](C)(CCC[C@H](C)CCC[C@H](C)CCCC(C)C)O2` ?
Result string: label 0

Query string: What did this assay record as the result for `CCN(CC)CCOC(=O)c1cccnc1` ?
Result string: label 0

Query string: What did this assay record as the result for `OCCOCCOCCO` ?
Result string: label 0

Query string: What did this assay record as the result for `N[C@H](CC(=O)O)C(=O)O` ?
Result string: label 0

Reference source for all entries: PubChem BioAssay (NCATS)
